- System: Regular RNA 20-mer oligonucleotide SEQ ID NO:1
- ASSAY OVERVIEW: Tm of 20-mer duplexes, modified SEQ ID NO:2 strand bound to Regular RNA SEQ ID NO:1
- Type: binding
- TEST PARAMETERS: duplex with Regular RNA SEQ ID NO:1; 4 μM each; 50 mM NaCl, 10 mM PO4 buffer, pH 7.4
[pOEt] = p-ethoxy (ethyl phosphotriester) internucleotide linkage
MEASUREMENT TYPE: Tm (°C)
Answer with a number only, understood to be in °C.

The measured Tm that Regular DNA: unmodified DNA 20-mer, SEQ ID NO:2 (5′-ccg act gag aag gaa cca cc-3′) (CCGACTGAGAAGGAACCACC; DNA, backbone not given here) [reference compound] showed for Regular RNA 20-mer oligonucleotide SEQ ID NO:1 is 66

The measured Tm that p-ethoxy RNA: SEQ ID NO:2 20-mer as p-ethoxy RNA (CCGACTGAGAAGGAACCACC; RNA, all [pOEt], T or U not given here) showed for Regular RNA 20-mer oligonucleotide SEQ ID NO:1 is 56

The measured Tm that p-ethoxy 2′-O-methyl: SEQ ID NO:2 20-mer as p-ethoxy 2′-O-methyl (CCGACTGAGAAGGAACCACC; all 2'-O-methyl, all [pOEt], T or U not given here) showed for Regular RNA 20-mer oligonucleotide SEQ ID NO:1 is 71

The measured Tm that 2′-O-methyl: SEQ ID NO:2 20-mer, every nucleotide with 2′-O-methyl group (CCGACTGAGAAGGAACCACC; all 2'-O-methyl, backbone and T or U not given here) showed for Regular RNA 20-mer oligonucleotide SEQ ID NO:1 is 79

Data credit: patent US6844151B1
